molecular target: Fha7-267^WT (truncated His-tagged Fha with the intact FHA domain) (Agrobacterium tumefaciens C58); assay: ITC; MicroCal iTC200; 200 µM Fha protein in the sample cell, 6 mM peptide in the injection syringe, 25 injections, 25°C, 50 mM Tris-HCl (pH 8.0), 150 mM NaCl; One Set of Sites model with the N value fixed at 1
Non-standard residues stand in square brackets, D forms with d. No end group written: not given here. pT = C[C@@H](OP(=O)(O)O)[C@H](N)C(=O)O
OBSERVABLE: Kd (µM)
One number for each entry, in µM.

[
  {
    "BINDER": "DNPSSWQDLP[pT]VVEITEESR [20 mer phosphorylated TssL peptide (…p…)]",
    "OBSERVABLE": "Kd",
    "REPORTED RESULT": 540
  }
]

Note: attention shifts to another entry.
Summary for this binder, DLP[pT]VVEI [8 mer phosphorylated TssL peptide (DLPpTVVEI)] : Kd is 1580
